Hey, just so you know, these numbers are from patent US20180334496A1.

target: T1, recombinant human CFD mutant 1 (R157A, R207A), His-tagged (human, UniProt P00746 26-253); experiment: SPR MX96
T1 construct: positions are linear positions in the mature protein; also called rhCFD-mut1-His; Mut1
T1 sequence (P00746 26-253 R182A/R232A limits assumed): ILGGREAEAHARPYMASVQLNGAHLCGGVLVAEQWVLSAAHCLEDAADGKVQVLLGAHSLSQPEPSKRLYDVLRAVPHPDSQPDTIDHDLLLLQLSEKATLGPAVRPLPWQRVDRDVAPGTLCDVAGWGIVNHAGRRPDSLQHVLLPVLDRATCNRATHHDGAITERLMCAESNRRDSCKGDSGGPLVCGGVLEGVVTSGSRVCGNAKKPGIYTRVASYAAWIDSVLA
measure_name: Kd (nM)
Unit nM implied. Number only.

Please give the measured Kd for this binder: KCD110 (antibody, V domains shown) VH: EVQLQQSGPELVKPGASVKISCKASGYSFTGYYMHWVKQSHGNILDWIGYIDPDNGVSSKNQKFTGKATVTADKSSSTAYMELRSLTSEDSAVYYCAGYYGSSWYWYFDVWGTGTTVTVSS VL: QIVLSQSPAILSASPGEKVTMTCRASSSVSYMHWYQQKPGSSPKPWIYATSNLASGVPARFSGSGSGTSYSLTISRVEAEDAATYYCQQWSSNPYTFGGGTKLEIK
4.1

Please give the measured Kd for this binder: KCD022 (antibody, V domains shown) VH: DVQLQESGPDLVKPSQSLSLTCTVTGYSITSGYSWHWIRQFPGNTLEWMGYIHYSGSTNYNPSLESRISFTRDTSKNQFFLQLNSVTTEDTATYYCALHFYGYNLGWYFDVWGAGTTVTVSS VL: DIVMTQSHKFMSTSIGDRVIITCKASQDVGTTVAWYQQRPGQSPKLLIYWASTRHTAVPDRFTGSGSGTDFTLTISNVQSEDLADYFCQQYTSYPLTFGAGTQLELK
110

Please give the measured Kd for this binder: KCD047 (antibody, V domains shown, chimeric) VH: EVQLQQSGAEFVKPGASVRLSCTASGFNIKDTYMHWVKQRPEQGLEWIGRIDPANGYTKDDPKFQGKATITADTSSNTAYLQLSSLTSEDTAVYYCASAMDYWGQGTSVTVSS VL: QIVLTQSPAVMSASPGEKVAMTCSASSSVTYMYWYQQKPGSSPRLLIYDTSNLASGVPVRFSGSGSGTSYSLTISRMEAEDAATYYCQQWSTYPFPFGSGTKLEIK
2.9

Please give the measured Kd for this binder: KCD208 (antibody, V domains shown, chimeric) VH: EVQLQQSVAELVRPGASVKLSCTVSGFNIKNTYMHWVKQRPEQGLEWIGRIDPANGDTTYAPKFQGKATITADTSSNSAYLHLSRLTSEDTAIYYCSLYDYDGYWGQGTTLTVSS VL: EIVLTQSPALMAASPGEKVTITCSVSSSISSSSLHWYRQKSGTSPKPWIYGTSHLASGVPVRFSGSGSGTSYSLTISSMEAEDAATYYCQQWDTYPWTFGGGTKLEIK
1.8

Please give the measured Kd for this binder: KCD008 (antibody, V domains shown) VH: EVQLQQSGPELVKAGASVKMSCTASGFNIKDTYMHWVKQRPEQGLAWIGRIDPANGNIKYDPKFQGKATITADTSSNTAYLQLSSLTSDDTAVYYCTSAMDYWGQGTSVTVSS VL: QIVLTQSPEIMSASPGEKVTMTCSARSSVSYMYWYQQKPGSSPRLLIYDTSNLASGVPVRFSGSGSGTSYSLTISRMETEDAATYYCQQWSTYPFTFGSGTKLEIK
5.7
